List of k (rate of hydrolysis) values.
Test: Chemical hydrolysis of cycloSal phosphate triesters in phosphate buffer
Assay type: physicochemical
Conditions: phosphate buffer 50 mM, pH 7.3, 37°C, ~15% acetonitrile
measured attribute: k (rate of hydrolysis)

| compound | measured attribute | test result |
| --- | --- | --- |
| CC(C)(C)c1cc(C(C)(C)C)c2c(c1F)COP(=O)(O[C@H]1C[C@H](n3cc(I)c(=O)[nH]c3=O)O[C@@H]1CO)O2 (stereo partly drawn) [14-fast] | k (rate of hydrolysis) | 0.000766 min⁻¹ |
| Cc1cccc2c1OP(=O)(OC[C@H]1O[C@@H](n3cc([125I])c(=O)[nH]c3=O)C[C@@H]1O)OC2 (stereo partly drawn) [7b-fast] | k (rate of hydrolysis) | 0.000544 min⁻¹ |
| CC(C)(C)c1cc(C(C)(C)C)c2c(c1F)COP(=O)(OC[C@H]1O[C@@H](n3cc([125I])c(=O)[nH]c3=O)C[C@@H]1F)O2 (stereo partly drawn) [24b-slow] | k (rate of hydrolysis) | 0.000224 min⁻¹ |
| Cc1cccc2c1OP(=O)(O[C@H]1C[C@H](n3cc(I)c(=O)[nH]c3=O)O[C@@H]1CO)OC2 (stereo partly drawn) [13-fast] | k (rate of hydrolysis) | 0.000946 min⁻¹ |
| CC(C)(C)c1cc(C(C)(C)C)c2c(c1F)COP(=O)(O[C@H]1C[C@H](n3cc(I)c(=O)[nH]c3=O)O[C@@H]1CO)O2 (stereo partly drawn) [14-slow] | k (rate of hydrolysis) | 0.000667 min⁻¹ |
| CC(C)(C)c1cc(C(C)(C)C)c2c(c1F)COP(=O)(OC[C@H]1O[C@@H](n3cc(I)c(=O)[nH]c3=O)C[C@@H]1F)O2 (stereo partly drawn) [24-fast] | k (rate of hydrolysis) | 0.000292 min⁻¹ |
| O=c1[nH]c(=O)n([C@H]2C[C@H](OP3(=O)OCc4ccccc4O3)[C@@H](CO)O2)cc1I (stereo partly drawn) [12-fast] | k (rate of hydrolysis) | 0.00205 min⁻¹ |
| CC(C)(C)c1cc(C(C)(C)C)c2c(c1F)COP(=O)(OC[C@H]1O[C@@H](n3cc(I)c(=O)[nH]c3=O)C[C@@H]1O)O2 (stereo partly drawn) [8-slow] | k (rate of hydrolysis) | 0.000188 min⁻¹ |
| CC(C)(C)c1cc(C(C)(C)C)c2c(c1F)COP(=O)(OC[C@H]1O[C@@H](n3cc([125I])c(=O)[nH]c3=O)C[C@@H]1F)O2 (stereo partly drawn) [24b-fast] | k (rate of hydrolysis) | 0.000301 min⁻¹ |
| CC(C)(C)c1cc(C(C)(C)C)c2c(c1F)COP(=O)(OC[C@H]1O[C@@H](n3cc(I)c(=O)[nH]c3=O)C[C@@H]1F)O2 (stereo partly drawn) [24-slow] | k (rate of hydrolysis) | 0.000222 min⁻¹ |
| O=c1[nH]c(=O)n([C@H]2C[C@H](O)[C@@H](COP3(=O)OCc4ccccc4O3)O2)cc1[125I] (stereo partly drawn) [6b-slow] | k (rate of hydrolysis) | 0.00152 min⁻¹ |
| O=c1[nH]c(=O)n([C@H]2C[C@H](O)[C@@H](COP3(=O)OCc4ccccc4O3)O2)cc1[125I] (stereo partly drawn) [6b-fast] | k (rate of hydrolysis) | 0.00225 min⁻¹ |
